- system: 17β-Hydroxysteroid Dehydrogenase Type 2 Enzyme (17β-HSD2) (Homo sapiens)
- Construct: made in house; host or cells: Sf-9 insect cells (baculovirus)
- Sequence (P37059 1-387): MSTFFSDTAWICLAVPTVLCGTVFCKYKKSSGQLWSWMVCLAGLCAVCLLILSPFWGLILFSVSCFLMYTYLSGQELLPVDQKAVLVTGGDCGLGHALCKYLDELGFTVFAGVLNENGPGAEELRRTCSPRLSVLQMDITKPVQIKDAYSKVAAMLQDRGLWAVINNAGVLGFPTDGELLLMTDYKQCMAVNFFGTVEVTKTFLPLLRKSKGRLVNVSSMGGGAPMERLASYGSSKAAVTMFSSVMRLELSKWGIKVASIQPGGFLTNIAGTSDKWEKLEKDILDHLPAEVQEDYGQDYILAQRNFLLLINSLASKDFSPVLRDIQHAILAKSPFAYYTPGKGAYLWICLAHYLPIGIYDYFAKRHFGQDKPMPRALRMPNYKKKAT
- measurementProtocol: Inhibition of the 17β-hydroxysteroid dehydrogenase type 2 enzyme, 3H-testosterone conversion
- Assay type: biochemical
- measurementParameters: inhibitor at 10 μM
measure: inhibition at 10 µM (%)

As a guide, the following entries are already answered.
molecularstring=COC1CCN(C(=O)N2CCC(=C(C#N)c3ccc(Cl)cn3)CC2)CC1 valuereported=10
molecularstring=COC1CCN(C(=O)N2CCC(=C(C#N)c3ccc(Cl)cc3)CC2)CC1 valuereported=10
molecularstring=N#CC(=C1CCN(C(=O)N2CCn3cncc3C2)CC1)c1ccc(Cl)s1 valuereported=-7
molecularstring=N#CC(=C1CCN(C(=O)N2CCC(O)CC2)CC1)c1ccc(F)cc1 valuereported=8
molecularstring=CN(C)C(=O)N1CCC(=C(C#N)c2ccc(F)cc2)CC1 valuereported=14
molecularstring=N#CC(=C1CCN(C(=O)N2CCc3nocc3C2)CC1)c1ccc(F)cn1 valuereported=23
molecularstring=N#CC(=C1CCN(C(=O)N2CCc3sccc3C2)CC1)c1cccc2[nH]ncc12 valuereported=34
molecularstring=CCOC1CCN(C(=O)N2CCC(=C(C#N)c3ccc(C(F)(F)F)cc3)CC2)CC1 valuereported=17
molecularstring=CC(C)OC1CCN(C(=O)N2CCC(=C(C#N)c3ccc(Cl)cc3)CC2)CC1 valuereported=23
molecularstring=N#CC(=C1CCN(C(=O)N2CCC(CO)CC2)CC1)c1ccc(Cl)cn1 valuereported=2

I: N#CC(=C1CCN(C(=O)N2CCC(S(N)(=O)=O)CC2)CC1)c1ccc(C(F)(F)F)cc1
II: N#CC(=C1CCN(C(=O)N2CCc3sccc3C2)CC1)c1ccc(F)cc1F
III: N#CC(=C1CCN(C(=O)N2CCn3cncc3C2)CC1)c1cccc2[nH]ncc12
IV: N#CC(=C1CCN(C(=O)N2CCc3nocc3C2)CC1)c1ccc(F)c(F)c1
Input: Rank the items in ascending order with respect to inhibition at 10 µM. Answer format: the labels, in the requested order.
Output: IV, I, II, III
(IV: 4%, I: 7%, II: 17%, III: 30%)

a: N#CC(=C1CCN(C(=O)N2CCc3nocc3C2)CC1)c1ccc(Cl)s1
b: N#CC(=C1CCN(C(=O)N2CCc3cc(F)ccc32)CC1)c1ccc(F)cc1
Input: Lower value of inhibition at 10 µM belongs to which: a or b ? Label of pick, please.
Output: a
(a: 18%, b: 26%)

I: N#CC(=C1CCN(C(=O)N2CCc3[nH]ncc3C2)CC1)c1ccc(F)c(F)c1
II: N#CC(=C1CCN(C(=O)N2CCC(CCO)CC2)CC1)c1ccc(C(F)(F)F)cc1
Input: Recorded inhibition at 10 µM values differ for I and II ; which one is higher? Write the label of whichever entry you select.
Output: I
(I: 21%, II: 9%)

A: N#CC(=C1CCN(C(=O)N2CCc3sccc3C2)CC1)c1ccc(Cl)cc1
B: N#CC(=C1CCN(C(=O)N2CCn3cncc3C2)CC1)c1ccc(Cl)cn1
C: N#CC(=C1CCN(C(=O)N2CCc3nocc3C2)CC1)c1cc(F)cc(F)c1
D: N#CC(=C1CCN(C(=O)N2CCSCC2)CC1)c1ccc(F)cc1
E: N#CC(=C1CCN(C(=O)N2CCn3ncnc3C2)CC1)c1cc(F)cc(F)c1
Input: Sort ascending by inhibition at 10 µM. Write out the labels following the order that was asked for.
Output: C, D, E, B, A
(C: -4%, D: -2%, E: 2%, B: 8%, A: 20%)

1: CC(C)OC1CCN(C(=O)N2CCC(=C(C#N)c3cccc(Cl)c3)CC2)CC1
2: N#CC(=C1CCN(C(=O)N2CCC(C(F)(F)F)CC2)CC1)c1ccc(F)cc1
Input: Between the entries labelled 1 and 2 , which has a larger inhibition at 10 µM value on record? Returns: label corresponding to the selected item.
Output: 1

1: N#CC(=C1CCN(C(=O)N2CCC(CO)CC2)CC1)c1ccc(F)cc1
2: N#CC(=C1CCN(C(=O)N2CCC(C(F)(F)F)CC2)CC1)c1cccc2[nH]ncc12
Input: Field: entry with larger inhibition at 10 µM (options 1 / 2 ). Lab log: write the label of the selected item as the result.
Output: 1

I: N#CC(=C1CCN(C(=O)N2CCC(S(N)(=O)=O)CC2)CC1)c1ccc(Cl)s1
II: COC[C@@H]1CCCN1C(=O)N1CCC(=C(C#N)c2ccc(Cl)cc2)CC1
III: N#CC(=C1CCN(C(=O)N2CCC(S(N)(=O)=O)CC2)CC1)c1ccc(Cl)cc1
Input: Sort by inhibition at 10 µM, descending. Respond with an ordered listing of the labels, as requested.
Output: II, I, III
